- Species: Cavia porcellus
- assay_details: Inhibitory activity against Na+/[Ca2+] exchanger after 30 min of K+ free incubation in isolated left atria from guinea pig
parameter_measured: IC30 (nM)
Field format: number, assumed nM, no unit text.

CC1c2ccccc2NC(=O)N1CCCN(C)C (stereo not drawn) : 5300
CN1CCC(N2C(=O)Nc3ccccc3C2c2ccccc2)CC1 (stereo not drawn) : 87
CN(C)CCCN1C(=O)Nc2ccccc2C1c1ccccc1 (stereo not drawn) : 350
CN(C)CCCN1C(S)=Nc2ccccc2C1c1ccccc1 (stereo not drawn) : 3800
O=C1Nc2ccccc2C(c2ccccc2)N1C1CCNCC1 (stereo not drawn) : 1100
CN(C)CCCN1C(=O)Nc2ccccc2C1c1cccs1 (stereo not drawn) : 720

Look at this compound and give its reported IC30. CN(C)CCCN1C(=O)Nc2ccccc2C1C1CCCCC1 (stereo not drawn) 570

Look at this compound and give its reported IC30. CN(C)CCCN1C(=O)Nc2ccc(Cl)cc2C1c1ccco1 (stereo not drawn) 690

Look at this compound and give its reported IC30. CCN(CC)CCCCN1C(=O)Nc2ccccc2C1c1ccccc1 (stereo not drawn) 1900

Look at this compound and give its reported IC30. CCNCCN1C(=O)Nc2ccccc2C1c1ccccc1 (stereo not drawn) 580

###

- Organism: Cavia porcellus
- assay_details: Inhibitory activity against Na+/[Ca2+] exchanger after 30 min of K+ free incubation in isolated left atria from guinea pig
Short version: IC30 at least 500 nM is T, less is F.

Worked examples, 4 molecules total:
O=C1Nc2ccccc2C(c2ccccc2)N1C1CCN(Cc2ccccc2)CC1 (configuration not stated) : F
CN(C)CCCN1C(=O)Nc2ccc(Cl)cc2C1c1ccccc1 (configuration not stated) : F
CCOCCN1C(=O)Nc2ccccc2C1c1ccccc1 (configuration not stated) : T
O=C1Nc2ccccc2C(c2ccccc2)N1C1CCN(CCc2ccccc2)CC1 (configuration not stated) : T

Quick check: does O=C1Nc2ccccc2C(c2ccccc2)N1C1CCN(CC2CCCCC2)CC1 (configuration not stated) have IC30 greater than or equal to 500 nM? T

Quick check: does CCN(CC)CCCN1C(=O)Nc2ccccc2C1c1ccccc1 (configuration not stated) have IC30 greater than or equal to 500 nM? F

Quick check: does CCN(CC)CCN1C(=O)Nc2ccccc2C1c1ccccc1 (configuration not stated) have IC30 greater than or equal to 500 nM? F

Quick check: does NCCN1C(=O)Nc2ccccc2C1c1ccccc1 (configuration not stated) have IC30 greater than or equal to 500 nM? T

Quick check: does CCN1CCC(N2C(=O)Nc3ccccc3C2c2ccccc2)CC1 (configuration not stated) have IC30 greater than or equal to 500 nM? F

Quick check: does CN(C)CCCN1C(=O)N(C)c2ccc(Cl)cc2C1c1ccccc1 (configuration not stated) have IC30 greater than or equal to 500 nM? T

Quick check: does CCCN1CCC(N2C(=O)Nc3ccccc3C2c2ccccc2)CC1 (configuration not stated) have IC30 greater than or equal to 500 nM? F

###

Some compounds, each annotated with its measured IC30.
- Species on record: Cavia porcellus
- assay_details: Inhibitory activity against Na+/[Ca2+] exchanger after 30 min of K+ free incubation in isolated left atria from guinea pig

CCN(CC)C(=O)CN1C(=O)Nc2ccccc2C1c1ccccc1 (stereo not drawn) : > 10 µM
CN(C)CCCN1C(=O)Nc2ccccc2C1Cc1ccccc1 (stereo not drawn) : > 10 µM

Look at this compound and give its reported IC30. CC(C)CCCN1C(=O)Nc2ccccc2C1c1ccccc1 (stereo not drawn) > 10 µM
